# method: Selectivity index, ratio of IC50 for equine serum butyrylcholine esterase to IC50 for electric eel AChE
measure_name: Ratio IC50
Numbers only.

>>> print(df.to_string())
                              line_notation  assay_result
0  COc1ccc2c(c1)O/C(=C\c1ccc(OCCCN(C)C)c(Cl)c1)C2=O          13.4
1  COc1ccc2c(c1)O/C(=C\c1ccc(OCCN(C)C)cc1)C2=O          13.1

Turning to the following compound.
Field request: Ratio IC50 | item: COc1ccc2c(c1)O/C(=C\c1ccc(OCCN(C)C)cc1Cl)C2=O
1.93

----------
Please go through the items and note down their Papp.
# method: in vitro
# recorded_conditions: PAMPA, pH 7.4
# Description: In vitro blood-brain barrier permeability at pH 7.4 by UV detection and HPLC based PAMPA method
Give bare numbers, in ×10⁻⁶ cm/s.

                              line_notation  assay_result
0  COc1ccc2c(c1)O/C(=C\c1ccc(OCCN3CCCCC3)cc1)C2=O            20

Provide each entry's Papp from the list below.
1. COc1ccc2c(c1)O/C(=C\c1ccc(OCCN3CCCC3)cc1)C2=O
2. COc1cc(/C=C2\Oc3cc(OCCN4CCCCC4)ccc3C2=O)cc(OC)c1OC
3. COc1ccc2c(c1)O/C(=C\c1ccc(OCCN3CCCCC3)c(Cl)c1)C2=O
4. COc1ccc(/C=C2\Oc3cc(OCCN4CCCCC4)ccc3C2=O)cc1

1: 24.7; 2: 21.3; 3: 12.2; 4: 20

Provide each entry's Papp from the list below.
1. COc1ccc(/C=C2\Oc3cc(OC)ccc3C2=O)cc1
2. O=C1/C(=C/c2ccc(OCCN3CCCCC3)cc2)Oc2cc(O)ccc21
3. CCN(CC)C(=O)Oc1ccc2c(c1)O/C(=C\c1ccc(OCCN3CCCCC3)cc1)C2=O

1: 9.8; 2: 10; 3: 16.1

----------
Entries with reported IC50 on Acetylcholinesterase (Electrophorus electricus)
Sequence (O42275 whole entry): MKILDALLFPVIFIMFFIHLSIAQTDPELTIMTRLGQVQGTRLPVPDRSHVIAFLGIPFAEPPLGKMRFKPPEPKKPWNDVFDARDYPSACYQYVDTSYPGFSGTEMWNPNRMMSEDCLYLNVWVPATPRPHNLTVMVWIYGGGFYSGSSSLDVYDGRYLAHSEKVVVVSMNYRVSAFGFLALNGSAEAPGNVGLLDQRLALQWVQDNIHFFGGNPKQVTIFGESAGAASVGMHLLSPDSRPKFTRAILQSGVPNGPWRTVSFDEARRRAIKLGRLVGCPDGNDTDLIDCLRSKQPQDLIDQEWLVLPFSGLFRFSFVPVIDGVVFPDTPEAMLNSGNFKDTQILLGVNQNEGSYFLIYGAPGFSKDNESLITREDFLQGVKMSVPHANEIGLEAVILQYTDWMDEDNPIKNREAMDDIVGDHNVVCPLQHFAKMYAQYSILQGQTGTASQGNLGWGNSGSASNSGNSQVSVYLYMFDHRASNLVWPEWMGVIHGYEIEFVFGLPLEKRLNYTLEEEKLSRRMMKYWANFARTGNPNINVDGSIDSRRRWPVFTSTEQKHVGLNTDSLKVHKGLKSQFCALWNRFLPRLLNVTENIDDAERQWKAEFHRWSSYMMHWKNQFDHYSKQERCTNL
One number for each entry, in nM.

Past entries and their recorded results:
In [3]: df
Out[3]:
                              line_notation                                 tested_on  measure_name  assay_result
0  COc1cc(/C=C2\Oc3cc(OCCN4CCCC4)ccc3C2=O)cc(OC)c1OC  Acetylcholinesterase (Electrophorus electricus)          IC50           643
1  O=C1/C(=C/c2ccc(OCCN3CCCC3)cc2)Oc2cc(O)ccc21  Acetylcholinesterase (Electrophorus electricus)          IC50          3240
2  COc1ccc2c(c1)O/C(=C\c1ccc(OCCN3CCCCC3)c(Cl)c1)C2=O  Acetylcholinesterase (Electrophorus electricus)          IC50           160
3  O=C1/C(=C/c2ccc(OCCN3CCCCC3)cc2)Oc2cc(O)ccc21  Acetylcholinesterase (Electrophorus electricus)          IC50          2230
4  COc1ccc(/C=C2\Oc3cc(OCCN4CCCCC4)ccc3C2=O)cc1  Acetylcholinesterase (Electrophorus electricus)          IC50           845

Provide each entry's IC50 from the list below.
1. COc1ccc2c(c1)O/C(=C\c1ccc(OCCCN(C)C)cc1Cl)C2=O
2. COc1cc(/C=C2\Oc3cc(OCCN4CCCCC4)ccc3C2=O)cc(OC)c1OC
3. CCN(CC)C(=O)Oc1ccc2c(c1)O/C(=C\c1ccc(OCCN3CCCCC3)cc1)C2=O

1: 15100; 2: 422; 3: 652

Provide each entry's IC50 from the list below.
1. CCN(CC)C(=O)Oc1ccc2c(c1)O/C(=C\c1ccc(OCCN(C)C)cc1)C2=O
2. COc1ccc2c(c1)O/C(=C\c1ccc(OCCN3CCCCC3)cc1)C2=O
3. COc1ccc2c(c1)O/C(=C\c1ccc(OCCN(C)C)cc1Cl)C2=O
4. COc1cc(/C=C2\Oc3cc(OCCN(C)C)ccc3C2=O)cc(OC)c1OC

[5440, 348, 12400, 15600]
